target_desc: Aβ40 (Homo sapiens, UniProt P05067)
Sequence (P05067 672-711 limits assumed, species assumed): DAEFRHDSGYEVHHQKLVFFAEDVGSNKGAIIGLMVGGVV
assay_explanation: kinetic ThT assay for Aβ aggregation
Type: biochemical
recorded_conditions: 80 h, compound 5 μm; DMSO control at 80 hr = 0% inhibition; parenthesis = compound 1027; read-out: % inhib Aβ 40 (5 μm)
assay_endpoint: inhibition at 5 µM (%)

O=C(NC1CC1)c1cccc(-c2cc(N3CCC3)c3nonc3c2)c1 ... 47

A: OC(c1cccc(-c2cc(N3CCC[C@H]3CN3CCCC3)c3nonc3c2)c1)C(F)(F)F (some centres unmarked)
B: O=C(c1ccccc1)N1CCN(c2ccc([N+](=O)[O-])c(Nc3ccccc3)c2)CC1 [compound 1027, reference compound]
C: CCN(C)c1cc(-c2cccc(C(O)C(F)(F)F)c2)cc2nonc12 (centres unmarked)
Put these in order: smallest inhibition at 5 µM first, largest last. Please respond by ranking the labels in the order requested. B, A, C

P: CN(Cc1ccc(F)cc1)c1cc(/C=C/C(O)(C(F)(F)F)C(F)(F)F)cc2nonc12
Q: CN(Cc1ccc(F)cc1)c1cc(-c2cccc(C3(O)COC3)c2)cc2nonc12
R: OC(c1cccc(-c2cc(N3CCCCC3)c3nonc3c2)c1)C(F)(F)F (centres unmarked)
Arrange these compounds by their inhibition at 5 µM, starting with the largest number. Please respond by ranking the labels in the order requested. R, P, Q

1: COC1CCN(c2cc(-c3cccc(C(O)C(F)(F)F)c3)cc3nonc23)C1 (centres unmarked)
2: OC(c1cccc(-c2cc(N3CC(N4CCCC4)C3)c3nonc3c2)c1)C(F)(F)F (centres unmarked)
For the pair 1 and 2 , which member has the lower inhibition at 5 µM number? Let me know the label of the one you choose. 2

1: CN(Cc1ccc(F)cc1)c1cc(/C=C/CO)cc2nonc12
2: O=C(c1cccc(-c2cc(N3CCC3)c3nonc3c2)c1)N1CCOCC1
For the pair 1 and 2 , which member has the lower inhibition at 5 µM number? Let me know the label of the one you choose. 2
(2: 29%, 1: 50%)

Recorded values, source patent US9328078B2.
